Collected Ki for Carbonic anhydrase 1 (Homo sapiens) across several studies; compounds listed below.

Fill in: Ki of COc1cc(/C=C/C(=O)OCCc2ccc(O)cc2)ccc1O is ___ > 50000 nM

Next: COc1cc(S(N)(=O)=O)ccc1-c1noc(-c2ccc(C#N)cc2)n1 779 nM

Same for Nc1nc(-c2ccc(NC(=O)c3ccc(O)c(O)c3)cc2)cn2c(=O)n(-c3ccccc3)nc12 > 100000 nM

Try this compound next: NCC(=O)NCC(=O)NS(=O)(=O)c1ccc(CO)cc1 1500 nM

And for COc1ccccc1/C=C(\C#N)C(=O)Nc1ccc(S(N)(=O)=O)cc1 ? 71 nM

# iterate: O=C(Cc1ccc(Cl)cc1)Oc1ccc2c(c1)OS(=O)(=O)C=C2 > 10000 nM

Again, but for NS(=O)(=O)c1ccc(N2C(=O)/C(=C/c3coc4ccccc4c3=O)N=C2c2ccc(Cl)cc2)cc1 > 10000 nM

And what about the compound C#CCOc1ccc(/C=N/Cc2ccc(S(N)(=O)=O)cc2)cc1OC ? > 10000 nM

Record: Cc1cc(-c2ccccc2)cc(C)[n+]1CC(=O)Nc1cc(C(F)(F)F)c(S(N)(=O)=O)cc1S(N)(=O)=O 300 nM

Same question for CC(=O)Oc1ccc2oc(=O)ccc2c1 please. > 10000 nM

What do you get for Cc1nn(-c2ccccc2)c2c1c(=O)oc1ccc(Br)cc12 ? > 10000 nM
